Documented Antidopaminergic activity: rat stereotype behaviour induced by apomorphine, ID50 across a set of compounds
target: central and peripheral D2 (DA2)--dopamine receptors (Rattus norvegicus, UniProt P61169); construct: Apomorphine-induced stereotyped behaviour in the rat, administering compounds via the intraperitoneal route; from tissue; host or cells: whole living rat (in vivo, intraperitoneal dosing); experiment: Apomorphine-induced stereotyped behaviour in the rat, intraperitoneal route; format: in vivo; settings: Table 1, ip
Sequence (P61169 whole entry): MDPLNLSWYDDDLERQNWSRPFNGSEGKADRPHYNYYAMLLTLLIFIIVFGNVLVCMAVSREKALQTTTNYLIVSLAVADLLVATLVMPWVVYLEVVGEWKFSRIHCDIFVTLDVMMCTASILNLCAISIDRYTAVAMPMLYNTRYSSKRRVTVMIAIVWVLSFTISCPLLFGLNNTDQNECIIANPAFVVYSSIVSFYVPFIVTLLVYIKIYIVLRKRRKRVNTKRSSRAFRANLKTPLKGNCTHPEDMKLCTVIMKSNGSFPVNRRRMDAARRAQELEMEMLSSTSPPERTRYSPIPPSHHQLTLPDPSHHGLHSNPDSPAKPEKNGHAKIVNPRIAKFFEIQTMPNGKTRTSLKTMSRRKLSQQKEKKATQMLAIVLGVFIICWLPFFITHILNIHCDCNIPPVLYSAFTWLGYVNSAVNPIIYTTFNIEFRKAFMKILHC

Past entries and their recorded results:
CCCCOc1cc(N)c(Cl)cc1C(=O)NC1CCN(CC2OC3CCCCC3O2)CC1 (stereo not drawn) | > 30.0 mg/kg
CCCCOc1cc(N)c(Cl)cc1C(=O)NC1CCN(CC2OCCO2)CC1 | > 30.0 mg/kg

Now look at this entry.
query: Find the measured Antidopaminergic activity: rat stereotype behaviour induced by apomorphine, ID50 of CCCOc1cc(N)c(Cl)cc1C(=O)NC1CCN(CCCC2CCCO2)CC1 (stereo not drawn) and report it.
result: > 30.0 mg/kg

----------
biological target: central and peripheral D2 (DA2)--dopamine receptors (Canis lupus familiaris, UniProt Q9GJU1); construct: Apomorphine-induced emesis in the dog, administering compounds via the intravenous route; from tissue; host or cells: whole living dog (in vivo, intravenous dosing); assay: Apomorphine-induced emesis in the dog, intravenous route; type: in vivo; details: Table 2 (with aromatic compounds)
Sequence (Q9GJU1 whole entry): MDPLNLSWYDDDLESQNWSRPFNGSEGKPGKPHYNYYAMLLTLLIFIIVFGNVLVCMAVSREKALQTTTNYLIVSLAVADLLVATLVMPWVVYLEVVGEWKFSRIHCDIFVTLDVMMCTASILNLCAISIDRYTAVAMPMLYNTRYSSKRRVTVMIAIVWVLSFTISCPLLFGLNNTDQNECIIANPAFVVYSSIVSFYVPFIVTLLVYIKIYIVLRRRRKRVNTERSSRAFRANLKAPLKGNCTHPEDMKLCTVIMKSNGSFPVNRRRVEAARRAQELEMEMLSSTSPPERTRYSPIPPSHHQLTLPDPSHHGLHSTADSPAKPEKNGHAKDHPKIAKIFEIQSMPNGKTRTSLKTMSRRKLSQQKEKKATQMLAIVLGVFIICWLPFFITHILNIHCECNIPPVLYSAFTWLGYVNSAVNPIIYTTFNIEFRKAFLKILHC
Documented Antidopaminergic activity: dog emesis screen, ID50 across a set of compounds

Past entries and their recorded results:
CCN(CC)CCNC(=O)c1cc(Cl)c(N)cc1OC [METOCLOPRAMIDE, reference compound] | 0.0767 mg/kg
COc1cc(N)c(Cl)cc1C(=O)NC1CCN(Cc2cccs2)CC1 [COMPOUND A, reference compound] | 0.01 to 0.03 mg/kg
COc1cc(N)c(Cl)cc1C(=O)NC1CCN(Cc2ccccc2)CC1 [CLEBOPRIDE, reference compound] | 0.0096 mg/kg
COc1cc(N)c([N+](=O)[O-])cc1C(=O)NC1CCN(Cc2cccs2)CC1 [COMPOUND B, reference compound] | 0.03 to 0.1 mg/kg

query: Find the measured Antidopaminergic activity: dog emesis screen, ID50 of COc1cc(N)c(Cl)cc1C(=O)NC1CCN(Cc2ccco2)CC1 [COMPOUND D, reference compound] and report it.
result: 0.01 to 0.03 mg/kg

query: Find the measured Antidopaminergic activity: dog emesis screen, ID50 of COc1cc(N)c(Cl)cc1C(=O)NC1CCN(Cc2ccccn2)CC1 [COMPOUND C, reference compound] and report it.
result: 0.03 to 0.1 mg/kg

----------
Documented Antidopaminergic activity: rat stereotype behaviour induced by apomorphine, ID50 across a set of compounds
target: central and peripheral D2 (DA2)--dopamine receptors (Rattus norvegicus, UniProt P61169); construct: Apomorphine-induced stereotyped behaviour in the rat, administering compounds via the intraperitoneal route; from tissue; host or cells: whole living rat (in vivo, intraperitoneal dosing); assay: Apomorphine-induced stereotyped behaviour in the rat, intraperitoneal route; type: in vivo; conditions: Table 2 (with aromatic compounds), ip

Past entries and their recorded results:
COc1cc(N)c(Cl)cc1C(=O)NC1CCN(Cc2ccccn2)CC1 [COMPOUND C, reference compound] | 10 to 30 mg/kg
COc1cc(N)c(Cl)cc1C(=O)NC1CCN(Cc2ccco2)CC1 [COMPOUND D, reference compound] | 3 to 10 mg/kg
CCN(CC)CCNC(=O)c1cc(Cl)c(N)cc1OC [METOCLOPRAMIDE, reference compound] | 5.4 mg/kg
COc1cc(N)c(Cl)cc1C(=O)NC1CCN(Cc2cccs2)CC1 [COMPOUND A, reference compound] | 3 to 10 mg/kg
COc1cc(N)c(Cl)cc1C(=O)NC1CCN(Cc2ccccc2)CC1 [CLEBOPRIDE, reference compound] | 0.3 mg/kg

query: Print central and peripheral D2 (DA2)--dopamine receptors (Rattus norvegicus, UniProt P61169) Antidopaminergic activity: rat stereotype behaviour induced by apomorphine, ID50 for COc1cc(N)c([N+](=O)[O-])cc1C(=O)NC1CCN(Cc2cccs2)CC1 [COMPOUND B, reference compound] .
result: 10 to 30 mg/kg

----------
biological target: central and peripheral D2 (DA2)--dopamine receptors (Rattus norvegicus); construct: Apomorphine-induced stereotyped behaviour in the rat, administering compounds via the intraperitoneal route; from tissue; host or cells: whole living rat (in vivo, intraperitoneal dosing); assay: Apomorphine-induced stereotyped behaviour in the rat, intraperitoneal route; format: in vivo; conditions: Table 1, ip
property_name: Antidopaminergic activity: rat stereotype behaviour induced by apomorphine, ID50

Past entries and their recorded results:
CCCCOc1cc(N)c(Cl)cc1C(=O)NC1CCN(CC2OC(C)(C)C(C)(C)O2)CC1 [COMPOUND 91] | > 30.0 mg/kg
CCCOc1cc(N)c(Cl)cc1C(=O)NC1CCN(CC2OCCCO2)CC1 [COMPOUND 108] | > 30.0 mg/kg
COc1cc(N)c(Cl)cc1C(=O)NC1CCN(Cc2ccccc2)CC1 [CLEBOPRIDE, reference compound] | 0.3 mg/kg
CCCCOc1cc(N)c(Cl)cc1C(=O)NC1CCN(CC2OCCCO2)CC1 [COMPOUND 109] | > 30.0 mg/kg
CCCCOc1cc(N)c(Cl)cc1C(=O)NC1CCN(CC2CCCCO2)CC1 (centres unmarked) [COMPOUND 57] | > 30.0 mg/kg

query: Find the measured Antidopaminergic activity: rat stereotype behaviour induced by apomorphine, ID50 of CCCCOc1cc(N)c(Cl)cc1C(=O)NC1CCN(CC2OCCCCO2)CC1 [COMPOUND 116] and report it.
result: > 30.0 mg/kg

query: Find the measured Antidopaminergic activity: rat stereotype behaviour induced by apomorphine, ID50 of CCN(CC)CCNC(=O)c1cc(Cl)c(N)cc1OC [METOCLOPRAMIDE, reference compound] and report it.
result: 5.4 mg/kg

query: Find the measured Antidopaminergic activity: rat stereotype behaviour induced by apomorphine, ID50 of COc1cc(N)c(Cl)cc1C(=O)NC1CCN(CC2COCO2)CC1 (centres unmarked) [COMPOUND 98] and report it.
result: > 30.0 mg/kg

----------
Molecular target: central and peripheral D2 (DA2)--dopamine receptors (Canis lupus familiaris, UniProt Q9GJU1)
Construct: Apomorphine-induced emesis in the dog, administering compounds via the intravenous route; from tissue; host or cells: whole living dog (in vivo, intravenous dosing)
Experiment: Apomorphine-induced emesis in the dog, intravenous route
Format: in vivo
Details: Table 1
Procedure: The pharmacological screening for undesirable effects upon central and peripheral D2 (DA2)--dopamine receptors was carried out using the following tests: 3. […] (see […]., High, […]., Burke, J. C. and […]. Exp. Therap., 127, 55-65, 1959).
Documented Antidopaminergic activity: dog emesis screen, ID50 across a set of molecules

Past entries and their recorded results:
CCCCOc1cc(N)c(Cl)cc1C(=O)NC1CCN(CC2CCCCO2)CC1 (stereo not shown) | > 1 mg/kg
CCCCOc1cc(N)c(Cl)cc1C(=O)NC1CCN(CC2OC(C)(C)C(C)(C)O2)CC1 | > 1 mg/kg
COc1cc(N)c(Cl)cc1C(=O)NC1CCN(CC2COCO2)CC1 (stereo not shown) | > 1 mg/kg

Now look at this entry.
query: Find the measured Antidopaminergic activity: dog emesis screen, ID50 of COc1cc(N)c(Cl)cc1C(=O)NC1CCN(Cc2ccccc2)CC1 [CLEBOPRIDE, reference compound] and report it.
result: 0.0096 mg/kg

Where these numbers come from: patent US4772618A
